Cited source for all entries: ChEMBL document CHEMBL5303573

# SETUP CONDITIONS: parabacteroides distasonis, 12 h, 2 µM
# Description: The drug is tested on Parabacteroides distasonis strain: ATCC8503 for biotransformation. The drug concentrations were measured before and after a 12-h incubation by liquid-chromatography-coupled mass spectrometry (LC–MS)
ASSAY ENDPOINT: Bacterial Biotransformation

Here's what some known entries look like.
COMPOUND	Bacterial Biotransformation
CCCCC(=O)O[C@]1(C(=O)CO)[C@@H](C)C[C@H]2[C@@H]3CCC4=CC(=O)C=C[C@]4(C)[C@@]3(F)[C@@H](O)C[C@@]21C [BETAMETHASONE VALERATE]	Compound metabolized
COc1ccccc1OCCNCC(O)COc1cccc2[nH]c3ccccc3c12 (stereo unspecified)	Compound metabolized
CC(=O)SCC(Cc1ccccc1)C(=O)NCC(=O)OCc1ccccc1 (stereo unspecified)	Compound metabolized
C#C[C@]1(O)CC[C@H]2[C@@H]3CCC4=CC(=O)CC[C@@H]4[C@H]3CC[C@@]21CC	Compound metabolized
COc1c2occc2cc2ccc(=O)oc12	Compound metabolized

Query block: Which Bacterial Biotransformation is reported for this compound? CNC(=C[N+](=O)[O-])NCCSCc1csc(CN(C)C)n1
Result block: Compound metabolized

---

# SETUP CONDITIONS: enterocloster bolteae, 12 h, 2 µM
# Description: The drug is tested on Clostridium bolteae strain: ATCCBAA-613 for biotransformation. The drug concentrations were measured before and after a 12-h incubation by liquid-chromatography-coupled mass spectrometry (LC–MS)
Non-standard residues stand in square brackets, D forms with d. Residues, ends and D or L forms follow the SMILES beside them. pGlu = O=C1CC[C@@H](C(=O)O)N1; Thz = O=C(O)[C@@H]1CSCN1
ASSAY ENDPOINT: Bacterial Biotransformation

Here's what some known entries look like.
COMPOUND	ASSAY ENDPOINT	OBSERVED
CC(=O)OCC(=O)NCCCOc1cccc(CN2CCCCC2)c1 [ROXATIDINE ACETATE]	Bacterial Biotransformation	Compound metabolized
CN/C(=N/CCSCc1nc[nH]c1C)NC#N [CIMETIDINE]	Bacterial Biotransformation	Compound NOT metabolized
O=C(O[C@H]1C[C@H]2CC[C@@H](C1)[N+]21CCCC1)C(O)(c1ccccc1)c1ccccc1.[Cl-] [TROSPIUM CHLORIDE]	Bacterial Biotransformation	Compound NOT metabolized
COc1ccnc(C[S+]([O-])c2nc3ccc(OC(F)F)cc3[nH]2)c1OC (stereo unspecified) [PANTOPRAZOLE]	Bacterial Biotransformation	Compound metabolized
CCC(=O)NCC[C@@H]1CCc2ccc3c(c21)CCO3 [RAMELTEON]	Bacterial Biotransformation	Compound NOT metabolized
COc1ccccc1OCC(O)CN1CCN(CC(=O)Nc2c(C)cccc2C)CC1 (stereo unspecified) [RANOLAZINE]	Bacterial Biotransformation	Compound NOT metabolized

Query block: Which Bacterial Biotransformation is reported for this compound? CN1C[C@H](C(=O)N[C@]2(C)O[C@@]3(O)[C@@H]4CCCN4C(=O)[C@H](Cc4ccccc4)N3C2=O)C=C2c3cccc4[nH]cc(c34)C[C@H]21.CN1C[C@H](C(=O)N[C@]2(C)O[C@@]3(O)[C@@H]4CCCN4C(=O)[C@H](Cc4ccccc4)N3C2=O)C=C2c3cccc4[nH]cc(c34)C[C@H]21.O=C(O)C(O)C(O)C(=O)O [ERGOTAMINE TARTRATE]
Result block: Compound metabolized

Query block: Which Bacterial Biotransformation is reported for this compound? O=C1CC[C@@H](C(=O)N2CSC[C@H]2C(=O)O)N1 [PIDOTIMOD] ([pGlu]-[Thz]-OH)
Result block: Compound NOT metabolized

Query block: Which Bacterial Biotransformation is reported for this compound? CC(C)(Oc1ccc(CCNC(=O)c2ccc(Cl)cc2)cc1)C(=O)O [BEZAFIBRATE]
Result block: Compound metabolized

Query block: Which Bacterial Biotransformation is reported for this compound? NC12CC3CC(CC(C3)C1)C2 [AMANTADINE]
Result block: Compound NOT metabolized

Query block: Which Bacterial Biotransformation is reported for this compound? CN1[C@@H]2CC[C@H]1C[C@@H](OC(=O)c1c[nH]c3ccccc13)C2 [TROPISETRON]
Result block: Compound NOT metabolized

Query block: Which Bacterial Biotransformation is reported for this compound? O=c1[nH]c2ccccc2n1C1CCN(CCCC(c2ccc(F)cc2)c2ccc(F)cc2)CC1 [PIMOZIDE]
Result block: Compound NOT metabolized

Query block: Which Bacterial Biotransformation is reported for this compound? CCc1nn(CCCN2CCN(c3cccc(Cl)c3)CC2)c(=O)n1CCOc1ccccc1 [NEFAZODONE]
Result block: Compound NOT metabolized

Query block: Which Bacterial Biotransformation is reported for this compound? O=C(CCCN1CCC2(CC1)C(=O)NCN2c1ccccc1)c1ccc(F)cc1 [SPIPERONE]
Result block: Compound NOT metabolized

Query block: Which Bacterial Biotransformation is reported for this compound? COc1ccc2cc([C@H](C)C(=O)O)ccc2c1 [NAPROXEN]
Result block: Compound NOT metabolized

Query block: Which Bacterial Biotransformation is reported for this compound? COC1=C(OC)C(=O)C(CCCCCCCCCCO)=C(C)C1=O [IDEBENONE]
Result block: Compound metabolized
